run-description: chemical genetic growth profiling, strain panel (AID 1159580);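 further: tested at 20 µM; growth read once vehicle control cultures reached saturation at 30 °C; 1 = growth at the plate median or of vehicle wells; lower values mean less growth of the strain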
test-context: S. cerevisiae deletion strains, growth OD, locus YBR009C, strain hhf1, hits give low values
The whole screen tested about 5,500 compounds, of which about 2,000 (36%) were called active. Not shown: some 18% with an inconclusive outcome. This is one part of the list.
recorded-endpoint: normalized growth

• Cc1c(Cl)cccc1Nc1ccccc1C(=O)O = 0.82
• CCCCN(CCCC)CCCOC(=O)c1ccc(N)cc1 = 0.998
• Cc1ccc(Cl)c(Nc2ccccc2C(=O)O)c1Cl = 0.856
• CCOC(=O)[C@H](CCc1ccccc1)N[C@@H](C)C(=O)N1[C@H](C(=O)O)C[C@@H]2CCC[C@@H]21 = 0.995
